- TARGET_OR_SYSTEM: N-terminally GST-fused purified FAK enzyme (Homo sapiens, UniProt Q05397)
- Sequence (Q05397 whole entry, the tested form may be a part): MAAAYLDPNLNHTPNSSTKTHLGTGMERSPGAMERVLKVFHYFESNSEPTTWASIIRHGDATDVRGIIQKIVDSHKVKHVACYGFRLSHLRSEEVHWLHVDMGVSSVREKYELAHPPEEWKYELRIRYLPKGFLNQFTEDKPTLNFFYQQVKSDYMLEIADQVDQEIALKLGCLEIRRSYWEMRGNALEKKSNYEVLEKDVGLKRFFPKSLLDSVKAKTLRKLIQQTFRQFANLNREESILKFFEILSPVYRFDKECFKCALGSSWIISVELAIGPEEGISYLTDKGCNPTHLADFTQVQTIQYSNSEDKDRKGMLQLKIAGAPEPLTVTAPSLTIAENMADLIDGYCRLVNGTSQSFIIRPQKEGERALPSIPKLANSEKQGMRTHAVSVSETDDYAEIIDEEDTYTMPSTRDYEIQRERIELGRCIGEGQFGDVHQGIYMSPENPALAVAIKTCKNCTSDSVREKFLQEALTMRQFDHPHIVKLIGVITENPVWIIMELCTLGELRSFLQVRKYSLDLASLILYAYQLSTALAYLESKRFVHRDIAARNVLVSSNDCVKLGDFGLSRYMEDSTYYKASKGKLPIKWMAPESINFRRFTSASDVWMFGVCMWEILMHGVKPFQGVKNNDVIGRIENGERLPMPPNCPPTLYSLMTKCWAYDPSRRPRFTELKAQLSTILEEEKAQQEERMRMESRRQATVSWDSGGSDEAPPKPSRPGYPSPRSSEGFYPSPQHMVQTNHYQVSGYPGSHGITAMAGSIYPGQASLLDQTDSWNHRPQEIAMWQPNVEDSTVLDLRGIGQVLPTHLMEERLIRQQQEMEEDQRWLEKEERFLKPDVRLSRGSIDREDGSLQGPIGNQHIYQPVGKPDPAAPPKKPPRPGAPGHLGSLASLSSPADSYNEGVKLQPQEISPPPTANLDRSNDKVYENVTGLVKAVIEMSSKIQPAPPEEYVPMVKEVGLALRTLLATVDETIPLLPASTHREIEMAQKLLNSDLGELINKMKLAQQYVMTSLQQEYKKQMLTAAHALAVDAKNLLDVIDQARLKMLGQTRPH
Exercise: for every item that follows, state its recorded pKd.
Give bare numbers, as −log10 of the molar value.

> print(dat)
                                   compound                          target.or.system  value
1  NC(=O)Cc1cncnc1CCc1nc(Nc2ccc(C3CCNCC3)cc2)ncc1C(F)(F)F  N-terminally GST-fused purified FAK enzyme (Homo sapiens, UniProt Q05397)   7.92
2  NC(=O)Cc1ccccc1CCc1nc(Nc2ccc(C3CNCCO3)cc2)ncc1C(F)(F)F (centres unmarked)  N-terminally GST-fused purified FAK enzyme (Homo sapiens, UniProt Q05397)   9.00

Quick request: pKd for each listed item, please.
1. NC(=O)Cc1nccnc1CCc1nc(Nc2ccc(C3CCNCC3)cc2)ncc1C(F)(F)F
2. CN1CCCCC1c1ccc(Nc2ncc(C(F)(F)F)c(CCc3ccccc3CC(N)=O)n2)cc1 (centres unmarked)

Result:
1: 7.85; 2: 8.15
